Tested on: Staphylococcus aureus
Assay: Antibacterial activity against methicillin-resistant Staphylococcus aureus 1024004-2 clinical isolate after 20 to 24 hrs by two-fold microdilution method
Format: functional
Here the recorded MIC is given for each entry.
Write the number in µg/mL without appending the unit.

Below are worked cases with known answers.
1) O=C1c2cccnc2C(=O)c2c1c(C(=O)OCCCCCN1CCOCC1)c1ccc(Br)cn21; 0.125
2) O=C1c2cccnc2C(=O)c2c1c(C(=O)OCCCCCCN1CCCCC1)c1ccc(Br)cn21; 0.063

Log: Staphylococcus aureus, compound O=C1c2cccnc2C(=O)c2c1c(C(=O)OCCCCN1CCOCC1)c1ccc(Br)cn21 , MIC = 0.5

---

Tested on: Staphylococcus aureus
Assay: Antibacterial activity against methicillin-resistant Staphylococcus aureus 1024010 clinical isolate after 20 to 24 hrs by two-fold microdilution method
Format: functional
Here the recorded MIC is given for each entry.
Write the number in µg/mL without appending the unit.

Below are worked cases with known answers.
1. O=C1c2cccnc2C(=O)c2c1c(C(=O)OCCCCCN1CCOCC1)c1ccc(Br)cn21; 0.031
2. O=C1c2cccnc2C(=O)c2c1c(C(=O)OCCCCCCN1CCCCC1)c1ccc(Br)cn21; 0.063

Moving on to the next compound.
Record CN(C)CCCCCOC(=O)c1c2c(n3cc(Br)ccc13)C(=O)c1ncccc1C2=O , field MIC: 0.25

---

Here the recorded MIC is given for each entry.
Test system: Staphylococcus aureus
Assay: Antibacterial activity against methicillin-resistant Staphylococcus aureus 531220 clinical isolate after 20 to 24 hrs by two-fold microdilution method
Assay type: functional

Below are worked cases with known answers.
1) CN1CCN(CCCCCCOC(=O)c2c3c(n4cc(Br)ccc24)C(=O)c2ncccc2C3=O)CC1; ≤ 7.8 ng/mL
2) O=C1c2cccnc2C(=O)c2c1c(C(=O)OCCCCCCN1CCOCC1)c1ccc(Br)cn21; ≤ 7.8 ng/mL

Moving on to the next compound.
Record O=C1c2cccnc2C(=O)c2c1c(C(=O)OCCCCCN1CCOCC1)c1ccc(Br)cn21 , field MIC: ≤ 7.8 ng/mL

Data credit: ChEMBL document CHEMBL4004803
